Test system: LXF-289
testSummary: relative viability (nuclei count vs DMSO), 5 days (fraction); higher = more cells survive
condition: first compound 0.05 µM
assayReadout: relative viability

1) Nc1ccn([C@@H]2O[C@H](CO)[C@@H](O)[C@@H]2O)c(=O)n1 [Cytarabine] + CS(=O)(=O)N1CCN(Cc2cc3nc(-c4cccc5[nH]ncc45)nc(N4CCOCC4)c3s2)CC1 [Pictilisib] (partner 1 µM) = 0.679
2) Nc1ccn([C@@H]2O[C@H](CO)[C@@H](O)[C@@H]2O)c(=O)n1 [Cytarabine] + Nc1nc2[nH]cc(CCc3ccc(C(=O)N[C@@H](CCC(=O)O)C(=O)O)cc3)c2c(=O)[nH]1 [Pemetrexed] (partner 0.2 µM) = 0.808
3) Nc1ccn([C@@H]2O[C@H](CO)[C@@H](O)[C@@H]2O)c(=O)n1 [Cytarabine] + CC1(C)CCC(c2ccc(Cl)cc2)=C(CN2CCN(c3ccc(C(=O)NS(=O)(=O)c4ccc(N[C@H](CCN5CCOCC5)CSc5ccccc5)c(S(=O)(=O)C(F)(F)F)c4)cc3)CC2)C1 [Navitoclax] (partner 0.5 µM) = 0.564
4) Nc1ccn([C@@H]2O[C@H](CO)[C@@H](O)[C@@H]2O)c(=O)n1 [Cytarabine] + Cc1nc(Nc2ncc(C(=O)Nc3c(C)cccc3Cl)s2)cc(N2CCN(CCO)CC2)n1 [Dasatinib] (partner 0.075 µM) = 0.171

---

Tested on: NCI-H1437
testSummary: relative viability (nuclei count vs DMSO), 5 days (fraction); higher = more cells survive
condition: first compound 0.253 µM
assayReadout: relative viability

1. O=c1[nH]c2ccccc2n1C1CCN(CCCC(c2ccc(F)cc2)c2ccc(F)cc2)CC1 [Pimozide] + CC(=O)Nc1cccc(-n2c(=O)n(C3CC3)c(=O)c3c(Nc4ccc(I)cc4F)n(C)c(=O)c(C)c32)c1 [Trametinib] (partner 0.02 µM) = 0.495
2. Cc1cnc(-c2cnc(NCCNc3ccc(C#N)cn3)nc2-c2ccc(Cl)cc2Cl)[nH]1 + Cc1cc(Nc2cc(N3CCN(C)CC3)nc(Sc3ccc(NC(=O)C4CC4)cc3)n2)n[nH]1 [Tozasertib] (partner 0.1 µM) = 0.444
3. Cc1cnc(-c2cnc(NCCNc3ccc(C#N)cn3)nc2-c2ccc(Cl)cc2Cl)[nH]1 + Nc1nc2[nH]cc(CCc3ccc(C(=O)N[C@@H](CCC(=O)O)C(=O)O)cc3)c2c(=O)[nH]1 [Pemetrexed] (partner 0.2 µM) = 0.328
4. O=c1[nH]c2ccccc2n1C1CCN(CCCC(c2ccc(F)cc2)c2ccc(F)cc2)CC1 [Pimozide] + O=C(c1cc(Cc2n[nH]c(=O)c3ccccc23)ccc1F)N1CCN(C(=O)C2CC2)CC1 [Olaparib] (partner 8 µM) = 0.616

---

System: NCI-H1651
testSummary: relative viability (nuclei count vs DMSO), 5 days (fraction); higher = more cells survive
condition: first compound 0.08 µM
Recorded relative viability by entry
assayReadout: relative viability

1) O=c1[nH]c2ccccc2n1C1CCN(CCCC(c2ccc(F)cc2)c2ccc(F)cc2)CC1 [Pimozide] + Cc1cc(Nc2cc(N3CCN(C)CC3)nc(Sc3ccc(NC(=O)C4CC4)cc3)n2)n[nH]1 [Tozasertib] (partner 0.1 µM) = 0.618
2) Cc1cnc(-c2cnc(NCCNc3ccc(C#N)cn3)nc2-c2ccc(Cl)cc2Cl)[nH]1 + O=C(c1cc(Cc2n[nH]c(=O)c3ccccc23)ccc1F)N1CCN(C(=O)C2CC2)CC1 [Olaparib] (partner 8 µM) = 0.175
3) Cc1cnc(-c2cnc(NCCNc3ccc(C#N)cn3)nc2-c2ccc(Cl)cc2Cl)[nH]1 + CS(=O)(=O)CCNCc1ccc(-c2ccc3ncnc(Nc4ccc(OCc5cccc(F)c5)c(Cl)c4)c3c2)o1 [Lapatinib] (partner 2 µM) = 0.937
4) Cc1cnc(-c2cnc(NCCNc3ccc(C#N)cn3)nc2-c2ccc(Cl)cc2Cl)[nH]1 + CC(C)C[C@H](NC(=O)[C@H](Cc1ccccc1)NC(=O)c1cnccn1)B(O)O [Bortezomib] (partner 0.002 µM) = 0.965
5) O=c1[nH]c2ccccc2n1C1CCN(CCCC(c2ccc(F)cc2)c2ccc(F)cc2)CC1 [Pimozide] + Nc1nc2[nH]cc(CCc3ccc(C(=O)N[C@@H](CCC(=O)O)C(=O)O)cc3)c2c(=O)[nH]1 [Pemetrexed] (partner 0.2 µM) = 0.603
6) O=c1[nH]c2ccccc2n1C1CCN(CCCC(c2ccc(F)cc2)c2ccc(F)cc2)CC1 [Pimozide] + N=C(N)NC(=N)NCCc1ccccc1 [Phenformin] (partner 250 µM) = 0.346

Hello, the source for this data is the supplement of paper PMC10307832, in case you need it.
